# Tested on: PCTK3;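 also: KINOMEscan kinase panel screen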
# Construct: gene CDK18
# CONDITION CONTEXT: concentration: 1 μM,replicates: in singlicate; n = 1
Quick list: %Inh per entry.
The reply should be a number in %, with the unit left off.

Solved entries (count: 2):
COc1cccc(C2=C(Nc3cccc(Cl)c3)C(=O)NC2=O)c1 [SB-341556] : 6
CC(C)S(=O)(=O)N1CCN(Cc2ccc3c(c2)nc(NC(=O)c2ccsc2)n3C[C@H](O)c2ccccc2)CC1 [GW635815] : 4

Turning now to a further compound:
Briefly, %Inh measured for Cn1ccc2ncnc(Oc3ccc(NC(=O)Nc4cncc(C(F)(F)F)c4)c(Cl)c3)c21 : 0
